Target: T1, hIL2Rb-his (human, UniProt P14784 27-240)
T1 sequence: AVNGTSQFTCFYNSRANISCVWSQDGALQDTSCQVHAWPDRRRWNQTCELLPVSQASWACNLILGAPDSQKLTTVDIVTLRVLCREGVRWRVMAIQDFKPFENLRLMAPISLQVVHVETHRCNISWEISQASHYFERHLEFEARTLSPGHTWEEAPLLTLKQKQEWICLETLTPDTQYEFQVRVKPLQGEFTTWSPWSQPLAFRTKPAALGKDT
Assay: SPR Biacore T200; Mono-Fc VHH captured on Protein A chip, hIL2Rb-his analyte; 1:1 Langmuir fit
quantity.kind: Kd (nM)
Kindly answer with a numeric value in nM, unit omitted.

// query Kd value for entry hIL2Rb_VHH2 Mono-Fc VHH (Fc fusion, not shown: a dimerising Fc or GST) QVQLQESGGGLVQPGGSLRLSCVASGFTFSNYWIFWVRQAAGKGLEWLSTSNTGGDTTKYADSVKGRFTISRDSAKNTEYLQMNSLKPEDTAVYYCETGRCARSGGYQGTQVTVSS
16

// query Kd value for entry hIL2Rb_VHH3 Mono-Fc VHH (Fc fusion, not shown: a dimerising Fc or GST) QVQLQESGGGLVQPGGSLKLSCAASGFRFSNYGMSWVRQAPGEGLEWVSYINGDGSRTHYADSVKGRFTISRDNAKNTLYLQLNSLKTEDTAMYYCEKGLSRDGWSLSAASRGQGTQVTVSS
47

// query Kd value for entry hIL2Rb_VHH6 Mono-Fc VHH (Fc fusion, not shown: a dimerising Fc or GST) QVQLQESGGGSVQAGGSLRLSCAASEYTASRYCMAWFRQAPGKEREGVAAIHPGGGTTYYADSVKGRFSISQDSADNTLYLQMNSLKPEDTAMYYCAAGSLWVPFGDRCAANYWGQGTQVTVSS
1.2

// query Kd value for entry hIL2Rb_VHH1 Mono-Fc VHH (Fc fusion, not shown: a dimerising Fc or GST) QVQLQESGGGSVQAGGSLRLSCVGSGYTYDTSDMSWYRQAPGKEREFVSDIDSGDWAAYADAVKGRFTISRDNAKKTVYLQMNSLEPEDTAMYYCKASYWKWGKLNNFWGPGTQVTVSS
1
